B1: library; numbered along this chain (parent)
chain: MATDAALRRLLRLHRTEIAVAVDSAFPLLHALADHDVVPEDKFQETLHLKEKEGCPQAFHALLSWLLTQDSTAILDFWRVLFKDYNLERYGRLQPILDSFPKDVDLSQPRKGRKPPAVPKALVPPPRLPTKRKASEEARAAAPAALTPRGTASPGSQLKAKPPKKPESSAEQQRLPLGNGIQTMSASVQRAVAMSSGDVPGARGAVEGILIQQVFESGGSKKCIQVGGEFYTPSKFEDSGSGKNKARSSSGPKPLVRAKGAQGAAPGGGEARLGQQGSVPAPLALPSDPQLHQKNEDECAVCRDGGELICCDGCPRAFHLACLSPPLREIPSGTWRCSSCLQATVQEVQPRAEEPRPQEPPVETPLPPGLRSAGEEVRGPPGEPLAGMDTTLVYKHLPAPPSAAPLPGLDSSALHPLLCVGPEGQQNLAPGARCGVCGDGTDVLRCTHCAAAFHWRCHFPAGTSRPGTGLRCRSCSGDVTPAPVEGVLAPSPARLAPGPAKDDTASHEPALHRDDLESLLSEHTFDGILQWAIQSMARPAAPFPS

Variants of: B1
Assay: AIRE transcriptional activation functional score (insulin promoter-GFP; nonsense median 0, synonymous median 1) (normalised score); higher = higher AIRE activity (more reporter activation)
Conditions: with insulin promoter-GFP reporter in HEK293
PROPERTY_NAME: AIRE transcriptional activation functional score
When you answer, write just the number.

Some variants with known AIRE transcriptional activation functional score results, for comparison:
E359M ... 1.08
Y394I ... 0.972
L13F ... 1.11

Incoming: What measured AIRE transcriptional activation functional score goes with `G313N` ?
Outgoing: 0.241

Incoming: // AIRE transcriptional activation functional score lookup, key: `Q173R`
Outgoing: 1.67

Incoming: Looking for the measured AIRE transcriptional activation functional score of `L414Y` , can you help?
Outgoing: -0.109

Incoming: I have this variant here, `R471C` , and I need its recorded AIRE transcriptional activation functional score.
Outgoing: 0.215

Incoming: Look at this variant and give its reported AIRE transcriptional activation functional score. `R203L`
Outgoing: 1.1

Incoming: Please look up its AIRE transcriptional activation functional score: `G379K`
Outgoing: 1.19

Incoming: Which AIRE transcriptional activation functional score value is on record for `G421Y` ?
Outgoing: -0.246

Incoming: # AIRE transcriptional activation functional score lookup, item `L75P`
Outgoing: -0.233

Incoming: Give the measured AIRE transcriptional activation functional score of `A493P` .
Outgoing: 0.631

Incoming: Query: AIRE transcriptional activation functional score; subject: `S217W`
Outgoing: 0.119

Incoming: AIRE transcriptional activation functional score lookup needed for `G180E` , thanks.
Outgoing: 0.208

Incoming: Fill in the blank: the reported AIRE transcriptional activation functional score of `L97N` is ____.
Outgoing: -0.0633

Incoming: Look up AIRE transcriptional activation functional score for this variant: `S168P`
Outgoing: -0.113
